Values were extracted from ChEMBL document CHEMBL1144898.

Test system: Cavia porcellus
Assay Name: Inotropic activity by slow intravenous infusion in anesthetized guinea pigs(Inotropic potency:dose increasing +dp/dtmax by 80%)
Format: functional

Compound	Target System	ED80
C[C@]12CC/C(=N\OCCCN)C[C@@H]1C(=O)C[C@@H]1[C@@H]2CC[C@]2(C)C(=O)CC[C@@H]12	Cavia porcellus	6.55 µM/kg
C[C@]12CC/C(=N\OCCN)C[C@@H]1[C@H](O)C[C@@H]1[C@@H]2CC[C@]2(C)C(O)CC[C@@H]12 (some centres not stated)	Cavia porcellus	0.97 µM/kg
C[C@]12CCC(=NOCCN)C[C@@H]1[C@@H](O)C[C@@H]1[C@@H]2CC[C@]2(C)C(=O)CC[C@@H]12 (stereo in doubt; 22g)	Cavia porcellus	5.3 µM/kg
C[C@]12CCC(=NOCCN)C[C@@H]1[C@@H](O)C[C@@H]1[C@@H]2CC[C@]2(C)C(=O)CC[C@@H]12 (stereo in doubt; 22n)	Cavia porcellus	14.8 µM/kg
C[C@]12CC/C(=N\OCCCN)C[C@@H]1[C@H](O)C[C@@H]1[C@@H]2CC[C@]2(C)C(O)CC[C@@H]12 (some centres not stated)	Cavia porcellus	1.58 µM/kg
C[C@H]1O[C@@H](O[C@H]2[C@@H](O)C[C@H](O[C@H]3[C@@H](O)C[C@H](O[C@H]4CC[C@@]5(C)[C@H](CC[C@@H]6[C@@H]5C[C@@H](O)[C@]5(C)[C@@H](C7=CC(=O)OC7)CC[C@]65O)C4)O[C@@H]3C)O[C@@H]2C)C[C@H](O)[C@@H]1O	Cavia porcellus	0.41 µM/kg
C[C@]12CCC(=NOCCN)C[C@@H]1C(=O)C[C@@H]1[C@@H]2CC[C@]2(C)C(=O)CC[C@@H]12	Cavia porcellus	4.84 µM/kg

###

System: Cavia porcellus
Assay Name: Inotropic activity by slow intravenous infusion in anesthetized guinea pigs(Dose inducing maximum positive inotropic effect)
Format: functional
Label Met when EDmax >= 20 µM/kg; otherwise Not met.

Molecule	Discrete Label
C[C@]12CCC(=NOCCN)C[C@@H]1C(=O)C[C@@H]1[C@@H]2CC[C@]2(C)C(=O)CC[C@@H]12	Not met
C[C@]12CC/C(=N\OCCN)C[C@@H]1[C@H](O)C[C@@H]1[C@@H]2CC[C@]2(C)C(O)CC[C@@H]12 (some centres not stated)	Not met
C[C@]12CCC(=NOCCN)C[C@@H]1[C@@H](O)C[C@@H]1[C@@H]2CC[C@]2(C)C(=O)CC[C@@H]12 (stereo in doubt; 22n)	Met
C[C@]12CCC(=NOCCN)C[C@@H]1[C@@H](O)C[C@@H]1[C@@H]2CC[C@]2(C)C(=O)CC[C@@H]12 (stereo in doubt; 22g)	Met
C[C@]12CC/C(=N\OCCCN)C[C@@H]1[C@H](O)C[C@@H]1[C@@H]2CC[C@]2(C)C(O)CC[C@@H]12 (some centres not stated)	Not met
C[C@]12CC/C(=N\OCCCN)C[C@@H]1C(=O)C[C@@H]1[C@@H]2CC[C@]2(C)C(=O)CC[C@@H]12	Not met
C[C@H]1O[C@@H](O[C@H]2[C@@H](O)C[C@H](O[C@H]3[C@@H](O)C[C@H](O[C@H]4CC[C@@]5(C)[C@H](CC[C@@H]6[C@@H]5C[C@@H](O)[C@]5(C)[C@@H](C7=CC(=O)OC7)CC[C@]65O)C4)O[C@@H]3C)O[C@@H]2C)C[C@H](O)[C@@H]1O	Not met
